Values from ChEMBL document CHEMBL1141469

- Tested on: Canis familiaris
- test description: AUC in Beagle dog at 2 mg/kg, po
- Format: ADME, organism-based, Canis lupus familiaris, Plasma
- Parameters: dose 2 mg/kg, route oral
- measurement parameters: in vivo
Assign AUC to each entry below.
Just so you know, I need the unit written after the number.

CC(C)CCc1nc(C(F)(F)F)nn1-c1ccc(S(C)(=O)=O)cn1 ... 4690 ng·h/mL
CS(=O)(=O)c1ccc(-n2nc(C(F)(F)F)nc2-c2ccccc2F)nc1 ... 14500 ng·h/mL
CS(=O)(=O)c1ccc(-n2nc(C(F)(F)F)nc2-c2cccnc2)nc1 ... 19400 ng·h/mL

Lab note: next molecule to report on.
Item CCC(C)Cc1nc(C(F)(F)F)nn1-c1ccc(S(C)(=O)=O)cn1 (centres undefined) : provide AUC
898 ng·h/mL

----------
- Organism: Canis lupus familiaris
- test description: Ratio of IC50 for dog COX1 to IC50 for dog COX2
Assign Ratio IC50 to each entry below.
Give bare numbers.

CS(=O)(=O)c1ccc(-n2nc(C(F)(F)F)nc2C2CCCCC2)nc1 ... 490

Lab note: next molecule to report on.
Item `CS(=O)(=O)c1ccc(-n2nc(C(F)(F)F)cc2-c2ccc(F)cc2)nc1` : provide Ratio IC50
69

----------
- test description: Tmax in Beagle dog at 2 mg/kg, po
- Assay type: ADME, organism-based, Canis lupus familiaris
- Parameters: dose 2 mg/kg, route oral
- measurement parameters: in vivo
parameter: Tmax (h)
Answers are plain numbers, in h.

Example cases with answers are listed next.
CC(C)CCc1nc(C(F)(F)F)nn1-c1ccc(S(C)(=O)=O)cn1 ... 0.8
CCC(C)Cc1nc(C(F)(F)F)nn1-c1ccc(S(C)(=O)=O)cn1 (centres undefined) ... 0.8
CS(=O)(=O)c1ccc(-n2nc(C(F)(F)F)nc2-c2cccnc2)nc1 ... 24

Lab note: next molecule to report on.
Item `CS(=O)(=O)c1ccc(-n2nc(C(F)(F)F)nc2-c2ccccc2F)nc1` : provide Tmax
1.5

----------
- test description: Inhibition of COX1 in dog whole blood assessed as production of TBX2 by EIA
- Type: tissue-based
- measurement parameters: Canis lupus familiaris
Assign IC50 to each entry below.
One number for each entry, in µM.

Below are 5 compounds. Give each one its IC50.
1. CC(C)Cc1nc(C(F)(F)F)nn1-c1ccc(S(C)(=O)=O)cn1
2. CS(=O)(=O)c1ccc(-n2nc(C(F)(F)F)nc2-c2ccc(F)cc2)nc1
3. CS(=O)(=O)c1ccc(-n2nc(C(F)(F)F)nc2C2CCCCC2)nc1
4. CC(C)CCc1nc(C(F)(F)F)nn1-c1ccc(S(C)(=O)=O)cn1
5. CS(=O)(=O)c1ccc(-n2nc(C(F)(F)F)cc2C2CCCCC2)nc1

3.2
17.7
29.4
31
13.6

----------
Assign Cmax to each entry below.
- test description: Cmax in Beagle dog at 2 mg/kg, po
- Format: ADME, organism-based, Canis lupus familiaris
- Set-up: dose 2 mg/kg, route oral
- measurement parameters: in vivo
Answers are plain numbers, in ng/mL.

CS(=O)(=O)c1ccc(-n2nc(C(F)(F)F)nc2-c2cccnc2)nc1 ... 566
CS(=O)(=O)c1ccc(-n2nc(C(F)(F)F)nc2-c2ccccc2F)nc1 ... 745
CC(C)CCc1nc(C(F)(F)F)nn1-c1ccc(S(C)(=O)=O)cn1 ... 751

Item CCC(C)Cc1nc(C(F)(F)F)nn1-c1ccc(S(C)(=O)=O)cn1 (centres undefined) : provide Cmax
321
